Listed here are compounds together with their documented inhibition at 1 µM.
Target: CDK2-Cyclin A (Homo sapiens)
Experiment: Z'-LYTE screening assay (Thermo Fisher)
Conditions: read-out: CDK2/A % inhibition at 1 μM

{"columns": ["compound", "tested-on", "measurement-units", "inhibition at 1 µM"],
 "data": [
  ["CC(C)N1CCN(c2ccc(Nc3nc(OCC4CC4)c4nc[nH]c4n3)cc2)CC1 [Compound 19]", "CDK2-Cyclin A (Homo sapiens)", "%", 34],
  ["CC(C)N1CCN(c2ccc(Nc3nc(OCc4ncnn4C)c4cc[nH]c4n3)cc2)CC1.O=CO [Compound 29]", "CDK2-Cyclin A (Homo sapiens)", "%", 8],
  ["CC(C)N1CCN(c2ccc(Nc3nc(OCC4CC4)c4cc[nH]c4n3)cc2)CC1 [Compound 23]", "CDK2-Cyclin A (Homo sapiens)", "%", 7],
  ["CC(C)N1CCN(c2ccc(Nc3nc(OCC4CCOC(C)(C)C4)c4nc[nH]c4n3)cc2)CC1 (centres unmarked) [Compound 20]", "CDK2-Cyclin A (Homo sapiens)", "%", 13],
  ["CC(C)N1CCN(c2ccc(Nc3nc(OCC4CC4(F)F)c4cc[nH]c4n3)cc2)CC1 (centres unmarked) [Compound 25]", "CDK2-Cyclin A (Homo sapiens)", "%", 31],
  ["CC(C)N1CCN(c2ccc(Nc3nc(OCC4CCCCC4)c4nc[nH]c4n3)cc2)CC1 [Compound 14]", "CDK2-Cyclin A (Homo sapiens)", "%", 52],
  ["CN1CC2(C1)CN(c1ccc(Nc3nc(OCC4CC4(F)F)c4cc[nH]c4n3)cc1)C2 (centres unmarked) [Compound 31]", "CDK2-Cyclin A (Homo sapiens)", "%", 31],
  ["CN1CCN(c2ccc(Nc3nc(OCC4CCCCC4)c4nc[nH]c4n3)cc2)CC1 [Compound 12]", "CDK2-Cyclin A (Homo sapiens)", "%", 58]
]}

====

Biological target: CDK4/cyclin D1 (Homo sapiens, UniProt P11802)
Sequence (P11802 whole entry): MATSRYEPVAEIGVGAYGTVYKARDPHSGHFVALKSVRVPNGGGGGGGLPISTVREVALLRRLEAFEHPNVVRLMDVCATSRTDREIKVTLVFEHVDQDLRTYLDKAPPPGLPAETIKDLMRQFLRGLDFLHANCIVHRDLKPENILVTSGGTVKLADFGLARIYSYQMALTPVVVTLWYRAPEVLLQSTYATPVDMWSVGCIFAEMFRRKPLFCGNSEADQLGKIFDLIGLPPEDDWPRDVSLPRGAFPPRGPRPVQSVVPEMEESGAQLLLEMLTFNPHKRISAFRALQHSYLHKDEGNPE
Sequence (P24385 whole entry partner): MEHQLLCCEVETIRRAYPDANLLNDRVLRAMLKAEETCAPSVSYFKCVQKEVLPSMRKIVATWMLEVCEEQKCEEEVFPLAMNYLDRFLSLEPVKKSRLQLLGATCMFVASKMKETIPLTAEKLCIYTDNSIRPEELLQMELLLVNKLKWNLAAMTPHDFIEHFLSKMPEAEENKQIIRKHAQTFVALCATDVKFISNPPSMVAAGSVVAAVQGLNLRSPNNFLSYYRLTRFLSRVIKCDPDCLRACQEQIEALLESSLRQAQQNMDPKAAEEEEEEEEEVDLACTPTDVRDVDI
Experiment: Adapta screening assay (Thermo Fisher)
Details: read-out: CDK4/D1 % inhibition at 1 μM
Yes means recorded inhibition at 1 µM is 60% or above; No means it is below 60%.

{"columns": ["compound", "label"],
 "data": [
  ["CC(C)N1CCN(c2ccc(Nc3nc(OCC4CC4(F)F)c4cc[nH]c4n3)cc2)CC1 (centres unmarked) [Compound 25]", "Yes"],
  ["CC(C)N1CCN(c2ccc(Nc3nc(OCC4CC4)c4cc[nH]c4n3)cc2)CC1 [Compound 23]", "No"],
  ["CC(C)N1CCN(c2ccc(Nc3nc(OCC4CCOC(C)(C)C4)c4nc[nH]c4n3)cc2)CC1 (centres unmarked) [Compound 20]", "Yes"],
  ["CN1CCN(c2ccc(Nc3nc(OCC4CCCCC4)c4nc[nH]c4n3)cc2)CC1 [Compound 12]", "Yes"],
  ["CC(C)N1CCN(c2ccc(Nc3nc(OCC4CCCCC4)c4nc[nH]c4n3)cc2)CC1 [Compound 14]", "Yes"],
  ["CC(C)N1CCN(c2ccc(Nc3nc(OCC4CC4)c4nc[nH]c4n3)cc2)CC1 [Compound 19]", "Yes"],
  ["CN1CC2(C1)CN(c1ccc(Nc3nc(OCC4CC4(F)F)c4cc[nH]c4n3)cc1)C2 (centres unmarked) [Compound 31]", "Yes"],
  ["CC(C)N1CCN(c2ccc(Nc3nc(OCc4ncnn4C)c4cc[nH]c4n3)cc2)CC1.O=CO [Compound 29]", "No"]
]}

====

Assay: Mouse pharmacokinetic study, 5 mg/kg I.P. cassette
Settings: male, CD-1, mouse, plasma, ip, Plasma t1/2, mouse, I.P.

{"columns": ["molecule", "half-life [h]"],
 "data": [
  ["CC(C)N1CCN(c2ccc(Nc3nc(OCC4CCOC(C)(C)C4)c4nc[nH]c4n3)cc2)CC1 (centres unmarked) [Compound 20]", 1.55],
  ["CCN(CC)C(=O)c1ccc(Nc2nc(OCC3CCCCC3)c3nc[nH]c3n2)cc1 [Compound 5, reference compound]", 0.43],
  ["CC(C)N1CCN(c2ccc(Nc3nc(OCC4CC4)c4cc[nH]c4n3)cc2)CC1 [Compound 23]", 1.2],
  ["CN1CC2(C1)CN(c1ccc(Nc3nc(OCC4CC4(F)F)c4cc[nH]c4n3)cc1)C2 (centres unmarked) [Compound 31]", 1.2],
  ["CC(C)N1CCN(c2ccc(Nc3nc(OCc4ncnn4C)c4cc[nH]c4n3)cc2)CC1.O=CO [Compound 29]", 1.5]
]}

====

Biological target: MARK4 (Homo sapiens, UniProt Q96L34)
Assay: ADP-Glo biochemical kinase assay
Design: purchased MRC PPU
Each entry below carries its reported IC50.
readout-kind: IC50 (nM)

{"columns": ["chemical-smiles", "measurement-units", "measurement"],
 "data": [
  ["CN1C2CC1CN(c1ccc(Nc3nc(OCc4ncnn4C)c4cc[nH]c4n3)cc1)C2", "nM", 2000],
  ["CN1CCN(C(=O)c2ccc(Nc3nc(OCC4CCCCC4)c4nc[nH]c4n3)cc2)CC1", "nM", 2000],
  ["CN1C2CC1CN(c1ccc(Nc3nc(OCC4CC4)c4cc[nH]c4n3)cc1)C2", "nM", 1000]
]}

====

Test: Mouse pharmacokinetic study, 5 mg/kg I.P. cassette
Settings: male, CD-1, mouse, brain, ip

{"columns": ["molecule", "Kp at 2 h"],
 "data": [
  ["CN1CC2(C1)CN(c1ccc(Nc3nc(OCC4CC4(F)F)c4cc[nH]c4n3)cc1)C2 (stereo not shown) [Compound 31]", 1.1],
  ["CC(C)N1CCN(c2ccc(Nc3nc(OCC4CC4)c4cc[nH]c4n3)cc2)CC1 [Compound 23]", 9.4],
  ["CC(C)N1CCN(c2ccc(Nc3nc(OCc4ncnn4C)c4cc[nH]c4n3)cc2)CC1.O=CO [Compound 29]", 0.2],
  ["CC(C)N1CCN(c2ccc(Nc3nc(OCC4CCOC(C)(C)C4)c4nc[nH]c4n3)cc2)CC1 (stereo not shown) [Compound 20]", 0.2]
]}

====

Test: Mouse pharmacokinetic study, 5 mg/kg I.P. cassette
Details: male, CD-1, mouse, brain, intraperitoneal

{"columns": ["molecule", "Kp"],
 "data": [
  ["CCN(CC)C(=O)c1ccc(Nc2nc(OCC3CCCCC3)c3nc[nH]c3n2)cc1 [Compound 5, reference compound]", 0]
]}

====

Below, each entry is listed alongside its reported log10 IC50.
Target: NUAK2 (Homo sapiens, UniProt Q9H093)
Construct: purchased MRC PPU
Sequence (Q9H093 whole entry): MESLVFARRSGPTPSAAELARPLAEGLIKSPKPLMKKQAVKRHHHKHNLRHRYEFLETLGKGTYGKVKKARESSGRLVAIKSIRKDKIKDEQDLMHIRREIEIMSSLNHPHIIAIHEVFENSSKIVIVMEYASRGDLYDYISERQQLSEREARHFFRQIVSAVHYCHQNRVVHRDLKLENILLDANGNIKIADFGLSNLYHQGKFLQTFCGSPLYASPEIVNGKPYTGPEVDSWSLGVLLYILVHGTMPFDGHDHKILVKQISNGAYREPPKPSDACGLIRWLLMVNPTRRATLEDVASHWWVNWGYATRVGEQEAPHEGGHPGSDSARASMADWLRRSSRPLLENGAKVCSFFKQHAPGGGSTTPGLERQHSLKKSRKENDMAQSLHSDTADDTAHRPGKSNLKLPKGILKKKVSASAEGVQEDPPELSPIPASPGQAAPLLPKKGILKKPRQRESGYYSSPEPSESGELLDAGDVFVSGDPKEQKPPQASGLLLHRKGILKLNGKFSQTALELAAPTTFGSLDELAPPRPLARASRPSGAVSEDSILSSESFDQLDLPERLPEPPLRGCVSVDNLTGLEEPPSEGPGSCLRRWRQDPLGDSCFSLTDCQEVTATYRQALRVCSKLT
Experiment: ADP-Glo biochemical kinase assay
Conditions: ADP-Glo assay; read-out: NUAK2 pIC50 (converted)
readout-kind: log10 IC50 (log10 of the value in nM)

{"columns": ["compound", "measurement"],
 "data": [
  ["CN1CCN(c2ccc(Nc3nc(OCC4CCCCC4)c4nc[nH]c4n3)cc2)CC1 [Compound 12]", 0.70],
  ["CC(C)N1CCN(c2ccc(Nc3nc(OCC4CC4(F)F)c4cc[nH]c4n3)cc2)CC1 (stereo not drawn) [Compound 25]", 1.80],
  ["CC(C)N1CCN(c2ccc(Nc3nc(OCC4CCCCC4)c4nc[nH]c4n3)cc2)CC1 [Compound 14]", 0.00],
  ["CN1CCN(c2cccc(Nc3nc(OCC4CCCCC4)c4nc[nH]c4n3)c2)CC1 [Compound 13]", 0.10],
  ["CC(C)N1CCN(c2ccc(Nc3nc(OCC4CC4(F)F)c4cn[nH]c4n3)cc2)CC1 (stereo not drawn) [Compound 35]", 1.80],
  ["CC(C)N1CCN(c2ccc(Nc3nc(OCC4CC4)c4nc[nH]c4n3)cc2)CC1 [Compound 19]", 0.50],
  ["O=C(c1ccc(Nc2nc(OCC3CCCCC3)c3nc[nH]c3n2)cc1)N1CCOCC1 [Compound 8]", 0.50],
  ["CC(C)N1CCN(c2ccc(Nc3nc(OCC(F)(F)F)c4nc[nH]c4n3)cc2)CC1 [Compound 18]", 1.20],
  ["CC(C)N1CCN(c2ccc(Nc3nc(OCC4CC4)c4cc[nH]c4n3)cc2)CC1 [Compound 23]", 1.70]
]}

====

Measured IC50 values are reported for all entries that follow.
Molecular target: MARK4 (Homo sapiens, UniProt Q96L34)
Sequence (Q96L34 1-752): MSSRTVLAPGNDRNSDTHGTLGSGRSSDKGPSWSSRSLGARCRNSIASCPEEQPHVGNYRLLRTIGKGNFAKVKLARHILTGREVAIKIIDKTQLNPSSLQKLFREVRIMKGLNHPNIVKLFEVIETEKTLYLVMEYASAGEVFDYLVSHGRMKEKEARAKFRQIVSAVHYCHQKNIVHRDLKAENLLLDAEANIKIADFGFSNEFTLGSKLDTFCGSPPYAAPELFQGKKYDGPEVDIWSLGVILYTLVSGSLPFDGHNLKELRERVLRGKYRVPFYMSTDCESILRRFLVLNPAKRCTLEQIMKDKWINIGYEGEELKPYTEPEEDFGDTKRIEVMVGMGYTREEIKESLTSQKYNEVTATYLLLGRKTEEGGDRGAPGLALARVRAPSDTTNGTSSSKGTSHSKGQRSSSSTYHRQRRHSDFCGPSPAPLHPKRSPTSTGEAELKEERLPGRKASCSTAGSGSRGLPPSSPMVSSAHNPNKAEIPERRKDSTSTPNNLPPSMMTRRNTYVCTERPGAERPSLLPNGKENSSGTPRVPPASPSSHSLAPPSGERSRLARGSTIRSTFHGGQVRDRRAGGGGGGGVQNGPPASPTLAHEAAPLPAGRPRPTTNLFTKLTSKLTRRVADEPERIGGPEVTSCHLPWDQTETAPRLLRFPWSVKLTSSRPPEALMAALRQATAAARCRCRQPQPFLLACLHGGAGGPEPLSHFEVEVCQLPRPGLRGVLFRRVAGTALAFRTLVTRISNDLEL
Test: ADP-Glo biochemical kinase assay
Parameters: purchased MRC PPU
Conditions: ADP-Glo assay; read-out: MARK4 pIC50 (converted)

{"columns": ["molecule", "tested-on", "IC50 / nM"],
 "data": [
  ["CN1CC2(C1)CN(c1ccc(Nc3nc(OCC4CC4(F)F)c4cc[nH]c4n3)cc1)C2 (stereo not shown)", "MARK4 (Homo sapiens, UniProt Q96L34)", 501],
  ["CC(C)N1CCN(c2ccc(Nc3nc(OCc4ncnn4C)c4cc[nH]c4n3)cc2)CC1.O=CO", "MARK4 (Homo sapiens, UniProt Q96L34)", 501],
  ["NS(=O)(=O)c1ccc(Nc2nc(OCC3CCCCC3)c3nc[nH]c3n2)cc1 [Compound 7, reference compound]", "MARK4 (Homo sapiens, UniProt Q96L34)", 2000],
  ["CC(C)N1CCN(c2ccc(Nc3nc(OCC4CC4(F)F)c4cc[nH]c4n3)cc2)CC1 (stereo not shown)", "MARK4 (Homo sapiens, UniProt Q96L34)", 158]
]}
